Recorded MIC by entry
# Tested on: E. coli GC 2235
# TEST: MIC, broth microdilution
# CONDITION_PARAMETERS: Escherichia coli, GC2235, read-out: MINIMAL INHIBITORY CONCENTRATION MIC, Human Serum
QUANTITY_NAME: MIC (µg/mL)

SMILES_NOTATION	QUAL	VALUE_REPORTED
CCC(=O)OCOC(=O)N(CC(=O)Nc1cc(N(C)C)c2c(c1O)C(=O)C1=C(O)[C@]3(O)C(=O)C(C(N)=O)=C(O)[C@@H](N(C)C)[C@@H]3C[C@@H]1C2)C(C)(C)C	=	4
CCCCCCC(=O)OCOC(=O)N(CC(=O)Nc1cc(N(C)C)c2c(c1O)C(=O)C1=C(O)[C@]3(O)C(=O)C(C(N)=O)=C(O)[C@@H](N(C)C)[C@@H]3C[C@@H]1C2)C(C)(C)C	=	16
CN(C)c1cc(NC(=O)CN(C(=O)OCOC(=O)C2CCCCC2)C(C)(C)C)c(O)c2c1C[C@H]1C[C@H]3[C@H](N(C)C)C(O)=C(C(N)=O)C(=O)[C@@]3(O)C(O)=C1C2=O	=	4
CCCCOC(=O)N(CC(=O)Nc1cc(N(C)C)c2c(c1O)C(=O)C1=C(O)[C@]3(O)C(=O)C(C(N)=O)=C(O)[C@@H](N(C)C)[C@@H]3C[C@@H]1C2)C(C)(C)C	>	64

----------
# Test system: E. faecalis GC 2242
# TEST: MIC, broth microdilution
# CONDITION_PARAMETERS: Enterococcus faecalis, GC2242, E. faecalis GC 2242; Water pre-incubation
QUANTITY_NAME: MIC (µg/mL)

COMPOUND	QUANTITY_NAME	VALUE_REPORTED
CCCN(CC(=O)Nc1cc(N(C)C)c2c(c1O)C(=O)C1=C(O)[C@]3(O)C(=O)C(C(N)=O)=C(O)[C@@H](N(C)C)[C@@H]3C[C@@H]1C2)C(=O)OCC	MIC	8
CCCN(CC(=O)Nc1cc(N(C)C)c2c(c1O)C(=O)C1=C(O)[C@]3(O)C(=O)C(C(N)=O)=C(O)[C@@H](N(C)C)[C@@H]3C[C@@H]1C2)C(=O)OCc1ccccc1	MIC	8
CCCN(CC(=O)Nc1cc(N(C)C)c2c(c1O)C(=O)C1=C(O)[C@]3(O)C(=O)C(C(N)=O)=C(O)[C@@H](N(C)C)[C@@H]3C[C@@H]1C2)C(=O)OCC(C)C	MIC	8
CCCN(CC(=O)Nc1cc(N(C)C)c2c(c1O)C(=O)C1=C(O)[C@]3(O)C(=O)C(C(N)=O)=C(O)[C@@H](N(C)C)[C@@H]3C[C@@H]1C2)C(=O)OCOC(=O)C(C)C	MIC	0.5
CCCCN(CC(=O)Nc1cc(N(C)C)c2c(c1O)C(=O)C1=C(O)[C@]3(O)C(=O)C(C(N)=O)=C(O)[C@@H](N(C)C)C3CC1C2)C(=O)OCOC(=O)C(C)C (some centres unmarked)	MIC	4

----------
# Test system: E. coli GC 1073
# TEST: MIC, broth microdilution
# CONDITION_PARAMETERS: Escherichia coli, GC1073, read-out: MINIMAL INHIBITORY CONCENTRATION MIC, Water

SMILES_NOTATION	QUAL	MIC / µg/mL
CCCCOC(=O)N(CC(=O)Nc1cc(N(C)C)c2c(c1O)C(=O)C1=C(O)[C@]3(O)C(=O)C(C(N)=O)=C(O)[C@@H](N(C)C)[C@@H]3C[C@@H]1C2)C(C)(C)C	>	64
CCCCCCC(=O)OCOC(=O)N(CC(=O)Nc1cc(N(C)C)c2c(c1O)C(=O)C1=C(O)[C@]3(O)C(=O)C(C(N)=O)=C(O)[C@@H](N(C)C)[C@@H]3C[C@@H]1C2)C(C)(C)C	=	64
CN(C)c1cc(NC(=O)CN(C(=O)OCOC(=O)c2ccc(F)cc2)C(C)(C)C)c(O)c2c1C[C@H]1C[C@H]3[C@H](N(C)C)C(O)=C(C(N)=O)C(=O)[C@@]3(O)C(O)=C1C2=O	=	4
CCC(=O)OCOC(=O)N(CC(=O)Nc1cc(N(C)C)c2c(c1O)C(=O)C1=C(O)[C@]3(O)C(=O)C(C(N)=O)=C(O)[C@@H](N(C)C)[C@@H]3C[C@@H]1C2)C(C)(C)C	=	32
COC(=O)N(CC(=O)Nc1cc(N(C)C)c2c(c1O)C(=O)C1=C(O)[C@]3(O)C(=O)C(C(N)=O)=C(O)[C@@H](N(C)C)[C@@H]3C[C@@H]1C2)C(C)(C)C	>	64

----------
# System: S. aureus GC 6469
# TEST: MIC, broth microdilution
# CONDITION_PARAMETERS: Staphylococcus aureus, GC6469, S. aureus GC 6469; Mouse Serum pre-incubation
The entries below come with measured MIC values attached.

COMPOUND	TARGET_SYSTEM	MIC / µg/mL
CCCCN(CC(=O)Nc1cc(N(C)C)c2c(c1O)C(=O)C1=C(O)[C@]3(O)C(=O)C(C(N)=O)=C(O)[C@@H](N(C)C)C3CC1C2)C(=O)OCOC(=O)C(C)C (some centres unmarked)	S. aureus GC 6469	2
CCCN(CC(=O)Nc1cc(N(C)C)c2c(c1O)C(=O)C1=C(O)[C@]3(O)C(=O)C(C(N)=O)=C(O)[C@@H](N(C)C)[C@@H]3C[C@@H]1C2)C(=O)OCc1ccccc1	S. aureus GC 6469	2
CCCCN(CC(=O)Nc1cc(N(C)C)c2c(c1O)C(=O)C1=C(O)[C@]3(O)C(=O)C(C(N)=O)=C(O)[C@@H](N(C)C)C3CC1C2)C(=O)OCOC(=O)c1ccc(C)cc1 (some centres unmarked)	S. aureus GC 6469	4
CCCCN(CC(=O)Nc1cc(N(C)C)c2c(c1O)C(=O)C1=C(O)[C@]3(O)C(=O)C(C(N)=O)=C(O)[C@@H](N(C)C)C3CC1C2)C(=O)OCOC(=O)c1ccc(OC)cc1 (some centres unmarked)	S. aureus GC 6469	2
CCCN(CC(=O)Nc1cc(N(C)C)c2c(c1O)C(=O)C1=C(O)[C@]3(O)C(=O)C(C(N)=O)=C(O)[C@@H](N(C)C)[C@@H]3C[C@@H]1C2)C(=O)OCC	S. aureus GC 6469	4

----------
// values below are reported ED50
# Test system: E. coli #311
# TEST: In vivo activity (oral, iv; ED50) against E. coli in mice
# CONDITION_PARAMETERS: Escherichia coli; single intravenous dose (SIV); read-out: ED50 E. coli #311 SIV

SMILES_NOTATION	TARGET_SYSTEM	QUAL	ED50 / mg/kg
CCC(C)(C)C(=O)OCOC(=O)N(CC(=O)Nc1cc(N(C)C)c2c(c1O)C(=O)C1=C(O)[C@]3(O)C(=O)C(C(N)=O)=C(O)[C@@H](N(C)C)[C@@H]3C[C@@H]1C2)C(C)(C)C	E. coli #311	=	2.85
CC(C)COC(=O)N(CC(=O)Nc1cc(N(C)C)c2c(c1O)C(=O)C1=C(O)[C@]3(O)C(=O)C(C(N)=O)=C(O)[C@@H](N(C)C)[C@@H]3C[C@@H]1C2)C(C)(C)C	E. coli #311	>	8
Cc1ccc(C(=O)OCOC(=O)N(CC(=O)Nc2cc(N(C)C)c3c(c2O)C(=O)C2=C(O)[C@]4(O)C(=O)C(C(N)=O)=C(O)[C@@H](N(C)C)[C@@H]4C[C@@H]2C3)C(C)(C)C)cc1	E. coli #311	=	3.17
CN(C)c1cc(NC(=O)CN(C(=O)OCOC(=O)CC2CCCC2)C(C)(C)C)c(O)c2c1C[C@H]1C[C@H]3[C@H](N(C)C)C(O)=C(C(N)=O)C(=O)[C@@]3(O)C(O)=C1C2=O	E. coli #311	=	3.72
CCCCOC(=O)N(CC(=O)Nc1cc(N(C)C)c2c(c1O)C(=O)C1=C(O)[C@]3(O)C(=O)C(C(N)=O)=C(O)[C@@H](N(C)C)[C@@H]3C[C@@H]1C2)C(C)(C)C	E. coli #311	>	8
CN(C)c1cc(NC(=O)CN(C(=O)OCOC(=O)c2ccc(C(F)(F)F)cc2)C(C)(C)C)c(O)c2c1C[C@H]1C[C@H]3[C@H](N(C)C)C(O)=C(C(N)=O)C(=O)[C@@]3(O)C(O)=C1C2=O	E. coli #311	=	4.69
CN(C)c1cc(NC(=O)CN(C(=O)OCOC(=O)CC(C)(C)C)C(C)(C)C)c(O)c2c1C[C@H]1C[C@H]3[C@H](N(C)C)C(O)=C(C(N)=O)C(=O)[C@@]3(O)C(O)=C1C2=O	E. coli #311	=	3.1
CN(C)c1cc(NC(=O)CN(C(=O)OCOC(=O)C2CCCCC2)C(C)(C)C)c(O)c2c1C[C@H]1C[C@H]3[C@H](N(C)C)C(O)=C(C(N)=O)C(=O)[C@@]3(O)C(O)=C1C2=O	E. coli #311	=	2.59
